Give OD450, PD-L1 binding with PD-1 for every item shown.
- system: PD-1 (UniProt Q15116)
- Sequence (Q15116 25-170 limits assumed): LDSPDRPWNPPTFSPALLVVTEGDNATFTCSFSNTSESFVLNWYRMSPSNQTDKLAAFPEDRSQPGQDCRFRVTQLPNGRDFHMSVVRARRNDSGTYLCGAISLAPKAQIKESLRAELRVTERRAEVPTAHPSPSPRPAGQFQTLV
- assay.name: blocking ELISA, clone supernatant, competitor PD-L1.hFc detected with anti-human Fc HRP
Your answer is read as OD450, so omit the unit and give the number.

Exercise: Please supply the value of reported OD450, PD-L1 binding with PD-1 for the item NB195 (VHH) VHH: EVQVVESGGGLVQAGGSLRLSCAASGDTILISAIGWYRQAPGKVRELVAAITNSGVTYYTDSVKGRFTISRDNAKNTVYLQMDSLKPEDTAVYYCNAGGPPPGGLGYDESDYWGPGTHVTVSS
Solution: 2.24

Exercise: For the binder NB169 (VHH) VHH: QVQLVESGGGLVPPGGSLRLSCAASGFTFSSYPMSWYRQAPGRKRDFVAMLTGAGGSTDYADSVKGRFTISRDNAKNTVYLQMNSLKPEDTAVYYCNAPAAMRDYGIDYWGKGTLVNVSS , report OD450, PD-L1 binding with PD-1.
Solution: 2.13

Exercise: For the binder NB182 (Fc fusion, not shown: a dimerising Fc or GST) VHH: QVQLVESGGGLVQAGGSLRLSCAASGDTSFISAAGWYRQAPGKERELVAAITNTGITYYPDSVKGRFTISRDNAKNTVYLQMNNLKPEDTAVYYCNAGAPPPGGLGYDESDYWGQGTQVTVSS , report OD450, PD-L1 binding with PD-1.
Solution: 0.213

Exercise: Supply OD450, PD-L1 binding with PD-1 value. Item: NB734 (VHH) VHH: QVQLVETGGGLVQAGGSLRLSCAASGDTILFSAVGWHRQAPGKERELVAAITNSGVTYYADSVKGRFSISRDNAKNTVYLQMNSLKPEDTAVYYCNAGAPPPGEFGYDESDYWGQGTQVTVSS
Solution: 1.42
